Target: T1, EsCas13d, nuclease-dead (Eubacterium siraeum, UniProt B0MS50, R295A;H300A;R849A;H854A)
T1 sequence: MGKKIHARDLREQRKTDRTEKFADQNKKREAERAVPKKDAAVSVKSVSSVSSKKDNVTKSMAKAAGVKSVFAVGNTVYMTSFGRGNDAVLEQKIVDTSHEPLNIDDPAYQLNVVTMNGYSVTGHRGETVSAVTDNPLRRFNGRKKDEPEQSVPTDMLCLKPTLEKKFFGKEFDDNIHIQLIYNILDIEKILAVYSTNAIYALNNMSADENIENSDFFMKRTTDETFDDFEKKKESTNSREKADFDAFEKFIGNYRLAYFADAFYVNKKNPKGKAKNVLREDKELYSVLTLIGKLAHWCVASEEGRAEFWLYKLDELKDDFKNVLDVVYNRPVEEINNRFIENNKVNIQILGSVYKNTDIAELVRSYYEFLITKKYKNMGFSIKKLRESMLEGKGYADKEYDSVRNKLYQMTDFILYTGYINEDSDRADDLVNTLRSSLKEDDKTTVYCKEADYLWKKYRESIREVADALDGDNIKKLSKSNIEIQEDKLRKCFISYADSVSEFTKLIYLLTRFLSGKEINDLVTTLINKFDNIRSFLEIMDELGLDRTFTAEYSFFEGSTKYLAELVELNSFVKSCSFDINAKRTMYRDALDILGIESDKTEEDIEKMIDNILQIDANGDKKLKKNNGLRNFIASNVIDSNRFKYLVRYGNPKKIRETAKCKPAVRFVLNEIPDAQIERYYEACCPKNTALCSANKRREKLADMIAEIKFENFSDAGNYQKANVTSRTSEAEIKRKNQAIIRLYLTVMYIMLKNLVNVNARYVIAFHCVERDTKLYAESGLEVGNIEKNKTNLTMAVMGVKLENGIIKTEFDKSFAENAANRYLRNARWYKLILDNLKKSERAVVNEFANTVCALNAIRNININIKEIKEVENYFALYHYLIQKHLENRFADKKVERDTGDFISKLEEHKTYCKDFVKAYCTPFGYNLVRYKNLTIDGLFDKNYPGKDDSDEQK
Experiment: crRNA (strand 1, pre-loaded); Mg2+; 40 mM Tris-HCl pH 7.5, 150 mM NaCl, 6 mM MgCl2, 1 mM DTT, 0.1% Tween-20, 0.2 mg/ml BSA; 25 C; 10 min per concentration, then washed
Conditions: tags: His6-TwinStrep-SUMO cleaved; N-terminal SNAP kept (SNAP-Surface 488); label: 3' end held by stalled T7 RNA polymerase
measured-endpoint: Kd (nM)

1. target 1 C2G,G13C (mixed) RNA 1: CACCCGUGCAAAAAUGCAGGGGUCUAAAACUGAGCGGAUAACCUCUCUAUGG RNA 2: GGGAAUGGAUCCACAUCUACGAAUUCGUACCAUAGAGACGUUAUCCGCUGACCGAGAUCGGAAGAGCACACGU : 47
2. target 3 U2G,U22G (mixed) RNA 1: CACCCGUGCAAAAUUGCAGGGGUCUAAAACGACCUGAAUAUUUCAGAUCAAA RNA 2: GGGAAUGGAUCCACAUCUACGAAUUCGUUGUUGAUCUGAAAUAUUCAGGGCUGCAGAUCGGAAGAGCACACGU : 61.5
